# Tested on: 485368-065-R4-J2-PDC spheroids with HUVEC/MSC, viability
# assay-overview: Anticancer human tumor 485368-065-R4-J2-PDC patient-derived pancreatic carcinoma cell line growth inhibition [TAK]
# reported-conditions: second compound 30 µM; first compound 0.001 µM; stronger effect = lower value
attribute-measured: viability, T/C (%)
Numbers only, in %.

-- ask Look up viability, T/C of CC(C)CC(NC(=O)C(Cc1ccccc1)NC(=O)c1cnccn1)B(O)O (centres undefined) + CC(C)NCC(C(=O)N1CCN(c2ncnc3c2C(C)CC3O)CC1)c1ccc(Cl)cc1 and report it.
-- reply 78

Kindly give each listed record's viability, T/C.
1. CC(C)CC(NC(=O)CNC(=O)c1cc(Cl)ccc1Cl)B1OC(=O)CC(CC(=O)O)(C(=O)O)O1 (centres undefined) + CC(C)NCC(C(=O)N1CCN(c2ncnc3c2C(C)CC3O)CC1)c1ccc(Cl)cc1
2. COC1CC2CCC(C)C(O)(O2)C(=O)C(=O)N2CCCCC2C(=O)OC(C(C)CC2CCC(OCCO)C(OC)C2)CC(=O)C(C)C=C(C)C(O)C(OC)C(=O)C(C)CC(C)C=CC=CC=C1C (centres undefined) + CC(C)NCC(C(=O)N1CCN(c2ncnc3c2C(C)CC3O)CC1)c1ccc(Cl)cc1
3. CC(C)n1nc(-c2ccc3oc(N)nc3c2)c2c(N)ncnc21 + CC(C)NCC(C(=O)N1CCN(c2ncnc3c2C(C)CC3O)CC1)c1ccc(Cl)cc1

-- reply
[80.2, 69, 69.3]

====

# Test system: 485368-065-R4-J2-PDC spheroids with HUVEC/MSC, viability
# assay-overview: Anticancer human tumor 485368-065-R4-J2-PDC cell line growth inhibition [TAK]
# reported-conditions: second compound 0.949 µM; first compound 0.000316 µM; stronger effect = lower value
# Protocol: Combinatorial screen of targeted agents with TAK-243 and ipatasertib in multi-cell type tumor spheroids […] Compounds. […] If the clinical Cmax for an agent had not been determined, the highest concentration tested was 10 microM. NCI60 Cell Culture. […] The optimal seeding densities for each of the cell lines at each time point assessed were determined prior to performing the concentration response studies. […]
attribute-measured: viability, T/C (%)
Numbers only, in %.

Kindly give each listed record's viability, T/C.
1. COC1CC2CCC(C)C(O)(O2)C(=O)C(=O)N2CCCCC2C(=O)OC(C(C)CC2CCC(OCCO)C(OC)C2)CC(=O)C(C)C=C(C)C(O)C(OC)C(=O)C(C)CC(C)C=CC=CC=C1C (centres undefined) + CC(C)NCC(C(=O)N1CCN(c2ncnc3c2C(C)CC3O)CC1)c1ccc(Cl)cc1
2. CC(C)n1nc(-c2ccc3oc(N)nc3c2)c2c(N)ncnc21 + CC(C)NCC(C(=O)N1CCN(c2ncnc3c2C(C)CC3O)CC1)c1ccc(Cl)cc1
3. CC(C)CC(NC(=O)CNC(=O)c1cc(Cl)ccc1Cl)B1OC(=O)CC(CC(=O)O)(C(=O)O)O1 (centres undefined) + CC(C)NCC(C(=O)N1CCN(c2ncnc3c2C(C)CC3O)CC1)c1ccc(Cl)cc1
4. CC(C)CC(NC(=O)C(Cc1ccccc1)NC(=O)c1cnccn1)B(O)O (centres undefined) + CC(C)NCC(C(=O)N1CCN(c2ncnc3c2C(C)CC3O)CC1)c1ccc(Cl)cc1

-- reply
1. 103
2. 98.6
3. 98.4
4. 103

====

# System: 485368-065-R4-J2-PDC spheroids with HUVEC/MSC, viability
# assay-overview: Anticancer human tumor 485368-065-R4-J2-PDC cell line growth inhibition [TAK];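 also: spheroids exposed to compounds for seven days before readout; 100% = DMSO vehicle control wells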
# reported-conditions: second compound 3 µM; first compound 0.0316 µM; stronger effect = lower value
Assign viability, T/C to each entry below.
Give bare numbers, in %.

Worked cases, viability, T/C given:
-- ask Look up viability, T/C of COC1CC2CCC(C)C(O)(O2)C(=O)C(=O)N2CCCCC2C(=O)OC(C(C)CC2CCC(OCCO)C(OC)C2)CC(=O)C(C)C=C(C)C(O)C(OC)C(=O)C(C)CC(C)C=CC=CC=C1C (stereo not drawn) + CC(C)NCC(C(=O)N1CCN(c2ncnc3c2C(C)CC3O)CC1)c1ccc(Cl)cc1 and report it.
-- reply 71.1

-- ask Look up viability, T/C of COc1c(OCCCN2CCOCC2)ccc2c3n(c(=NC(=O)c4cnc(N)nc4)nc12)CCN3 + CC(C)NCC(C(=O)N1CCN(c2ncnc3c2C(C)CC3O)CC1)c1ccc(Cl)cc1 and report it.
-- reply 66.5

Further cases:
-- ask Look up viability, T/C of CC(C)CC(NC(=O)CNC(=O)c1cc(Cl)ccc1Cl)B1OC(=O)CC(CC(=O)O)(C(=O)O)O1 (stereo not drawn) + CC(C)NCC(C(=O)N1CCN(c2ncnc3c2C(C)CC3O)CC1)c1ccc(Cl)cc1 and report it.
-- reply 40.5

====

# System: 485368-065-R4-J2-PDC spheroids with HUVEC/MSC, viability
# assay-overview: Anticancer human tumor 485368-065-R4-J2-PDC cell line growth inhibition [TAK];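 also: spheroids exposed to compounds for seven days before readout; 100% = DMSO vehicle control wells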
# reported-conditions: second compound 0.949 µM; first compound 0.00316 µM; stronger effect = lower value
attribute-measured: viability, T/C (%)
Numbers only, in %.

-- ask Look up viability, T/C of CC(C)CC(NC(=O)C(Cc1ccccc1)NC(=O)c1cnccn1)B(O)O (stereo not given) + CC(C)NCC(C(=O)N1CCN(c2ncnc3c2C(C)CC3O)CC1)c1ccc(Cl)cc1 and report it.
-- reply 102

-- ask Look up viability, T/C of CC(C)n1nc(-c2ccc3oc(N)nc3c2)c2c(N)ncnc21 + CC(C)NCC(C(=O)N1CCN(c2ncnc3c2C(C)CC3O)CC1)c1ccc(Cl)cc1 and report it.
-- reply 91.4

Kindly give each listed record's viability, T/C.
1. COC1CC2CCC(C)C(O)(O2)C(=O)C(=O)N2CCCCC2C(=O)OC(C(C)CC2CCC(OCCO)C(OC)C2)CC(=O)C(C)C=C(C)C(O)C(OC)C(=O)C(C)CC(C)C=CC=CC=C1C (stereo not given) + CC(C)NCC(C(=O)N1CCN(c2ncnc3c2C(C)CC3O)CC1)c1ccc(Cl)cc1
2. COc1c(OCCCN2CCOCC2)ccc2c3n(c(=NC(=O)c4cnc(N)nc4)nc12)CCN3 + CC(C)NCC(C(=O)N1CCN(c2ncnc3c2C(C)CC3O)CC1)c1ccc(Cl)cc1
3. CC(C)CC(NC(=O)CNC(=O)c1cc(Cl)ccc1Cl)B1OC(=O)CC(CC(=O)O)(C(=O)O)O1 (stereo not given) + CC(C)NCC(C(=O)N1CCN(c2ncnc3c2C(C)CC3O)CC1)c1ccc(Cl)cc1

-- reply
100
96.3
97.5

====

# Test system: 485368-065-R4-J2-PDC spheroids with HUVEC/MSC, viability
# assay-overview: Anticancer human tumor 485368-065-R4-J2-PDC cell line growth inhibition [TAK];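 also: spheroids exposed to compounds for seven days before readout; 100% = DMSO vehicle control wells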
# reported-conditions: second compound 3 µM; first compound 0.0316 µM; stronger effect = lower value
attribute-measured: viability, T/C (%)
Answers are plain numbers, in %.

Worked cases, viability, T/C given:
-- ask Consider the compound Cc1nc(NC(=O)N2CCCC2C(N)=O)sc1-c1ccnc(C(C)(C)C(F)(F)F)c1 (stereo not drawn) + CC(C)NCC(C(=O)N1CCN(c2ncnc3c2C(C)CC3O)CC1)c1ccc(Cl)cc1 tested on 485368-065-R4-J2-PDC spheroids with HUVEC/MSC, viability; state its viability, T/C.
-- reply 95.1

-- ask Consider the compound CC(C)(C)c1nc(-c2cccc(NS(=O)(=O)c3c(F)cccc3F)c2F)c(-c2ccnc(N)n2)s1 + CC(C)NCC(C(=O)N1CCN(c2ncnc3c2C(C)CC3O)CC1)c1ccc(Cl)cc1 tested on 485368-065-R4-J2-PDC spheroids with HUVEC/MSC, viability; state its viability, T/C.
-- reply 98.2

Proceeding to the next compound to report its viability, T/C.
-- ask Consider the compound CC(C)n1nc(-c2ccc3oc(N)nc3c2)c2c(N)ncnc21 + CC(C)NCC(C(=O)N1CCN(c2ncnc3c2C(C)CC3O)CC1)c1ccc(Cl)cc1 tested on 485368-065-R4-J2-PDC spheroids with HUVEC/MSC, viability; state its viability, T/C.
-- reply 42.7

====

Assign viability, T/C to each entry below.
# System: 485368-065-R4-J2-PDC spheroids with HUVEC/MSC, viability
# assay-overview: Anticancer human tumor 485368-065-R4-J2-PDC cell line growth inhibition [TAK];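 also: spheroids exposed to compounds for seven days before readout; 100% = DMSO vehicle control wells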
# reported-conditions: second compound 30 µM; first compound 0.316 µM; stronger effect = lower value

Worked cases, viability, T/C given:
-- ask Look up viability, T/C of CCCS(=O)(=O)Nc1ccc(F)c(C(=O)c2c[nH]c3ncc(-c4ccc(Cl)cc4)cc23)c1F + CC(C)NCC(C(=O)N1CCN(c2ncnc3c2C(C)CC3O)CC1)c1ccc(Cl)cc1 and report it.
-- reply 84%

-- ask Look up viability, T/C of Cc1nc(NC(=O)N2CCCC2C(N)=O)sc1-c1ccnc(C(C)(C)C(F)(F)F)c1 (centres undefined) + CC(C)NCC(C(=O)N1CCN(c2ncnc3c2C(C)CC3O)CC1)c1ccc(Cl)cc1 and report it.
-- reply 59.5%

-- ask Look up viability, T/C of COc1c(OCCCN2CCOCC2)ccc2c3n(c(=NC(=O)c4cnc(N)nc4)nc12)CCN3 + CC(C)NCC(C(=O)N1CCN(c2ncnc3c2C(C)CC3O)CC1)c1ccc(Cl)cc1 and report it.
-- reply 25.3%

Further cases:
-- ask Look up viability, T/C of CC(C)(C)c1nc(-c2cccc(NS(=O)(=O)c3c(F)cccc3F)c2F)c(-c2ccnc(N)n2)s1 + CC(C)NCC(C(=O)N1CCN(c2ncnc3c2C(C)CC3O)CC1)c1ccc(Cl)cc1 and report it.
-- reply 49.8%
